- Assay Target: UniProt:P33072
- Sequence (P33072 170-418): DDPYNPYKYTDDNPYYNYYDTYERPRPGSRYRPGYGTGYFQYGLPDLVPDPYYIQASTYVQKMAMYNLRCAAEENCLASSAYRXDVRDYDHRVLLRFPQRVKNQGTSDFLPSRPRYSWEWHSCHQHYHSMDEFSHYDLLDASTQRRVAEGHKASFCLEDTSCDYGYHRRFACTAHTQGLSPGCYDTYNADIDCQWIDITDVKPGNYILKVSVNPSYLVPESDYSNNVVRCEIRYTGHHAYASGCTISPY
Counter-ions that a name gives are not always drawn.
Property Name: pIC50
Give bare numbers, as −log10 of the molar value.

Illustrative cases are given below, each with its answer.
C=C=C(CN)CCCc1ccccc1 [Hydrochloride]	9.00
C=C=C(CN)CCc1ccccc1 [Hydrochloride]	9.00
C=C=C(CN)CCCCCC [Hydrochloride]	9.00

Continue with the next compound.
Tell me its pIC50 on UniProt:P33072: C=C=C(CN)c1cc2ccccc2s1 [Hydrochloride]
8.00
